This collection of values is drawn from ChEMBL document CHEMBL4513216.

- System: Plasmodium berghei
- Experiment summary: Screen against P. berghei liver stage (PbLuc), transformed with Luciferase, at 10uM
- Assay type: functional, HepG2
- Assay setup: tested at 10 uM
About 8,600 (12%) of roughly 69,000 compounds showed an effect of 50% or more. The list comes from a sample in which strong results are over-represented; it also holds close analogues and randomly drawn compounds.
Endpoint name: INHIBITION

Field: example entries. Status: answers known.
>>> test_result("Cc1ccc(CN2CCN(C3CCCC3)CC2CCO)o1 (stereo not drawn)")
"50.9%"
>>> test_result("CC(C)NC(=O)CC1COC2(CCN(Cc3ccccc3)CC2)C1 (stereo not drawn)")
"21.6%"
>>> test_result("Cc1ccc(C(=O)NS(=O)(=O)c2ccccc2Br)c(=O)[nH]1")
"44.1%"

Batch lookup, INHIBITION per entry.
1. Cc1nc(C)n(CC2CCCN2CCC(=O)NC2CCCC2)n1 (stereo not drawn)
2. CS(=O)(=O)Cc1ccc(C(=O)NC2CCc3nccn3C2)o1 (stereo not drawn)

1: -38.7%; 2: -16.38%

Batch lookup, INHIBITION per entry.
1. COCCN1C[C@@H]2CC[C@H]1CN(C(=O)CCc1n[nH]c(C)c1C)C2
2. Cc1cc(N2CCCC2)nc(CNS(=O)(=O)Cc2ccccc2)n1
3. Cc1nc(C)c(-c2ccn(CC(=O)Nc3cnn(C)n3)n2)s1
4. CC(=O)N1CCC(N2CCN(Cc3ccc(C)o3)C(CCO)C2)CC1 (stereo not drawn)

["-4.92%", "81%", "82.4%", "33.7%"]

Batch lookup, INHIBITION per entry.
1. CN(C)Cc1ccc(CNC(=O)NCC2(C)CCCS2)cc1 (stereo not drawn)
2. CCCS(=O)(=O)NCc1nc(C)cc(N2CCCC2)n1

1: 49.3%; 2: 56.6%

Batch lookup, INHIBITION per entry.
1. CN(C)[C@@H]1CN(Cc2cccnc2)C[C@H]1c1cn(C)c2ccccc12
2. Cn1ncc(NC(=O)Cn2ccc(-c3cccc(F)c3)n2)n1
3. O=C(C1CCC2(CCN(CC3CCOCC3)CC2)O1)N1CCCC1 (stereo not drawn)
4. Oc1cccc(CNCC2CCCO2)c1 (stereo not drawn)
5. Cc1ccc(CN2CCN(C3CSCCSC3)CC2CCO)o1 (stereo not drawn)

1: 23.69%; 2: 7.39%; 3: 1.34%; 4: 35.5%; 5: 50.9%
